experimentalProtocol: Oral bioavailability in BALB/c mouse at 5 mg/kg measured during 0.083 to 24 hrs post dose by LC-MS/MS analysis
Format: ADME, organism-based
condition: in vivo, time 0.083-24 hrs
measureName: bioavailability (%)
Answers are plain numbers, in %.

Record CC(C)(CO)NC(=O)c1cc(C(C)(C)C)n(-c2ccc(C(F)(F)F)cn2)n1 . Reported bioavailability: 79.5

====

Please go through the items and note down their pEC50.
subjectOfTest: Cannabinoid receptor 2 (Homo sapiens, UniProt P34972)
Sequence (P34972 whole entry): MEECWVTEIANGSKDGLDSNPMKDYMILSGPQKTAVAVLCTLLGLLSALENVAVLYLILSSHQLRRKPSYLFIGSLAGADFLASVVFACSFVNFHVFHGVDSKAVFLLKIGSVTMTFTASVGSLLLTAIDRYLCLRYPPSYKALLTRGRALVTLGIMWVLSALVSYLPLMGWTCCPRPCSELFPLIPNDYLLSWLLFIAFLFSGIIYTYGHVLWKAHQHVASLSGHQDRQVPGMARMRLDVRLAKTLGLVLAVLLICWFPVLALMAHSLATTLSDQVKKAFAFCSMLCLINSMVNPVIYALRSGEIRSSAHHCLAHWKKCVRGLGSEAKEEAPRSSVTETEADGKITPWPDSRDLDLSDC
experimentalProtocol: Agonist activity at human CB2 receptor expressing CHO cells co-expressing Galpha16 by calcium mobilization assay
Type: functional, cell-based
Answers are plain numbers, as −log10 of the molar value.

Assay Cannabinoid receptor 2 (Homo sapiens, UniProt P34972), sample CCCCCCn1nc(C(=O)NC(C)(C)CO)cc1C(C)(C)C , pEC50 read: 7.87

Assay Cannabinoid receptor 2 (Homo sapiens, UniProt P34972), sample CC(C)(CO)NC(=O)c1cc(C(C)(C)C)n(-c2cccnc2)n1 , pEC50 read: 4.00

Assay Cannabinoid receptor 2 (Homo sapiens, UniProt P34972), sample Cc1ccc(-n2nc(C(=O)NC(C)(C)CO)cc2C(C)(C)C)cc1 , pEC50 read: 6.70

Parameter requested: pEC50. Apply to each item below.
1. CCCCCn1nc(C(=O)N[C@@H](C(=O)OC)C(C)C)cc1C(C)(C)C
2. CCCCCn1nc(C(C)(C)C)cc1C(=O)NCc1ccc(Cl)cc1
3. CC(C)(CO)NC(=O)c1cc(C(C)(C)C)n(-c2ncc(C(F)(F)F)cc2Cl)n1
4. CC(C)(CO)NC(=O)c1cc(C(C)(C)C)n(-c2ccc(Cl)cc2)n1
5. CC(C)(CO)NC(=O)c1cc(C(C)(C)C)n(-c2ncccn2)n1

1. 8.13
2. 4.00
3. 4.00
4. 6.69
5. 4.00

====

subjectOfTest: Cannabinoid receptor 2 (Homo sapiens, UniProt P34972)
experimentalProtocol: Agonist activity at human CB2 receptor expressing CHO cells co-expressing Galpha16 by calcium mobilization assay relative to CP55940
Format: functional, cell-based
condition: filed as agonist
measureName: Emax (%)
One number for each entry, in %.

Record CC(C)(CO)NC(=O)c1cc(C(C)(C)C)n(-c2ccc(F)cn2)n1 . Reported Emax: 100

Record CCCCCn1nc(C(C)(C)C)cc1C(=O)NC(C)(C)CO . Reported Emax: 80

Record CC(C)(CO)NC(=O)c1cc(C(C)(C)C)n(-c2ccc(F)cc2F)n1 . Reported Emax: 80

Record CCCCCn1nc(C(=O)NC2CCCCC2)cc1C(C)(C)C . Reported Emax: 80

Record CCCCCn1nc(C(=O)NC(C)(C)CO)cc1C(C)C . Reported Emax: 70

Parameter requested: Emax. Apply to each item below.
1. CCCCCn1nc(C(=O)NC(C)(C)CO)c([N+](=O)[O-])c1C(C)(C)C
2. CC(C)(CO)NC(=O)c1cc(C(C)(C)C)n(-c2ccc(F)cc2)n1
3. CC(C)(CO)NC(=O)c1cc(C(C)(C)C)n(-c2ccccn2)n1
4. CCCCCn1nc(C(=O)N[C@@H](C(=O)OC)C(C)(C)C)cc1C(C)(C)C
5. CCCCCn1nc(C(=O)Nc2ccc(Cl)cc2)cc1C(C)(C)C
6. Cc1ccc(-n2nc(C(=O)NC(C)(C)CO)cc2C(C)(C)C)cc1
7. CCCCCn1nc(C(=O)N[C@@H](C(=O)OC)C(C)C)cc1C(C)(C)C
8. CCCCCn1nc(C(C)(C)C)cc1C(=O)NC(C)(C)C

70
82
80
100
80
40
90
80

====

subjectOfTest: Cannabinoid receptor 1 (Homo sapiens, UniProt P21554)
Sequence (P21554 whole entry): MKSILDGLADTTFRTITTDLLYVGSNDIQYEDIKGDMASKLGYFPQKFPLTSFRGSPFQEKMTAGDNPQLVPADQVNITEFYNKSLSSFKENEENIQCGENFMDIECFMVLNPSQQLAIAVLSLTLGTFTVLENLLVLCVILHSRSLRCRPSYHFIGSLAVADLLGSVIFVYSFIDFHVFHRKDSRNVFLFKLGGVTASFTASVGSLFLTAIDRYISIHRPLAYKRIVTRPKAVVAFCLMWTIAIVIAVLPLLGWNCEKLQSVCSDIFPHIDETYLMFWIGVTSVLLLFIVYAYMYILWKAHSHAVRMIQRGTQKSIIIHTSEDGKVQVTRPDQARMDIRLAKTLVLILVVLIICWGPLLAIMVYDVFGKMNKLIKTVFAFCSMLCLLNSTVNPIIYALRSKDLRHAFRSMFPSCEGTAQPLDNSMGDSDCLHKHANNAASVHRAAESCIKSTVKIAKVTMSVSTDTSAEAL
experimentalProtocol: Agonist activity at human CB1 receptor expressing CHO cells co-expressing Galpha16 by calcium mobilization assay
Format: functional, cell-based
Please go through the items and note down their pEC50.
Numbers only, as −log10 of the molar value.

Assay Cannabinoid receptor 1 (Homo sapiens, UniProt P21554), sample CC(C)(CO)NC(=O)c1cc(C(C)(C)C)n(-c2cccnc2)n1 , pEC50 read: 4.00

Assay Cannabinoid receptor 1 (Homo sapiens, UniProt P21554), sample CCCCCn1nc(C(=O)NC(C)(C)CO)cc1CC(C)(C)C , pEC50 read: 7.57

Parameter requested: pEC50. Apply to each item below.
1. CC(C)(CO)NC(=O)c1cc(C(C)(C)C)n(-c2ccccc2)n1
2. CC(C)(CO)NC(=O)c1cc(C(C)(C)C)n(-c2ccc(Cl)cn2)n1
3. COCCn1nc(C(=O)NC(C)(C)CO)cc1C(C)(C)C
4. CCCCCn1nc(C(=O)NC(C)(C)CO)c(Br)c1C(C)(C)C
5. CC(C)(CO)NC(=O)c1cc(C(C)(C)C)n(-c2ncccn2)n1
6. CCCCCn1nc(C(=O)NC(C)(C)CO)cc1C(C)(C)C
7. CCCCCn1nc(C(C)(C)C)cc1C(=O)NC(C)(C)CO
8. CCCCCn1nc(C(=O)Nc2ccncc2)cc1C(C)(C)C

4.00
4.00
4.00
7.57
4.00
7.76
4.00
6.66

Parameter requested: pEC50. Apply to each item below.
1. CC(C)(CO)NC(=O)c1cc(C(C)(C)C)n(-c2ccc(C(F)(F)F)cn2)n1
2. CC(C)(CO)NC(=O)c1cc(C(C)(C)C)n(CCCCCF)n1
3. CCCCCn1nc(C(=O)NC23CC4CC(CC(O)(C4)C2)C3)cc1C(C)(C)C
4. CC(C)(CO)NC(=O)c1cc(C(C)(C)C)n(-c2ccccn2)n1
5. CCCCCn1nc(C(=O)N[C@H](C(=O)OC)C(C)C)cc1C(C)(C)C
6. CCCCCn1nc(C(=O)NC(C)(C)CO)cc1C1CCCCC1
7. CCCCCn1nc(C(C)(C)C)cc1C(=O)NCc1ccc(Cl)cc1

1. 5.74
2. 7.37
3. 8.40
4. 4.00
5. 7.58
6. 4.00
7. 4.00

====

subjectOfTest: Cannabinoid receptor 2 (Homo sapiens, UniProt P34972)
experimentalProtocol: Agonist activity at human CB2 receptor expressing CHO cells co-expressing Galpha16 by calcium mobilization assay relative to CP55940
Format: functional, cell-based
condition: filed as agonist
measureName: Emax (%)
Give bare numbers, in %.

Solved entries (count: 5):
Record CC(C)(CO)NC(=O)c1cc(C(C)(C)C)n(CC2CC2)n1 . Reported Emax: 100

Record CC(C)(CO)NC(=O)c1cc(C(C)(C)C)n(-c2ccc(C(F)(F)F)cn2)n1 . Reported Emax: 100

Record CCCCCn1nc(C(=O)NC(C)(C)C)cc1C(C)(C)C . Reported Emax: 100

Record CC(C)(CO)NC(=O)c1cc(C(C)(C)C)n(CCCCF)n1 . Reported Emax: 100

Record CC(C)(CO)NC(=O)c1cc(C(C)(C)C)n(-c2ccc(Cl)cc2)n1 . Reported Emax: 100

Parameter requested: Emax. Apply to each item below.
1. CCCCCn1nc(C(=O)NC(C)(C)CO)c(Br)c1C(C)(C)C
2. CC(C)(CO)NC(=O)c1cc(C(C)(C)C)n(CCCCCF)n1
3. CCCn1nc(C(=O)NC(C)(C)CO)cc1C(C)(C)C

[100, 70, 100]

Record CCCCCn1nc(C(=O)NC(C)(C)CO)cc1CC(C)(C)C . Reported Emax: 50

====

experimentalProtocol: Half life in BALB/c mouse at 5 mg/kg, po measured during 0.083 to 24 hrs post dose by LC-MS/MS analysis
Type: ADME, organism-based
condition: in vivo, time 0.083-24 hrs
measureName: half-life (h)
One number for each entry, in h.

Record CC(C)(CO)NC(=O)c1cc(C(C)(C)C)n(-c2ccc(C(F)(F)F)cn2)n1 . Reported half-life: 2.18

====

Please go through the items and note down their EC50.
subjectOfTest: Cannabinoid receptor 1 (Homo sapiens, UniProt P21554)
experimentalProtocol: Agonist activity at human CB1 receptor expressing CHO cells co-expressing Galpha16 by calcium mobilization assay
Assay type: functional, cell-based
Answers are plain numbers, in µM.

Parameter requested: EC50. Apply to each item below.
1. CCCCCn1nc(C(=O)NCc2ccc(Cl)cc2)cc1C(C)(C)C
2. CCCCCn1nc(C(=O)NC23CC4CC(CC(C4)C2)C3)cc1C(C)(C)C
3. CC(C)(CO)NC(=O)c1cc(C(C)(C)C)n(-c2ccc(F)cc2)n1

1. 100
2. 0.271
3. 100

====

subjectOfTest: Cannabinoid receptor 2 (Homo sapiens)
experimentalProtocol: Agonist activity at human CB2 receptor expressing CHO cells co-expressing Galpha16 by calcium mobilization assay
Assay type: functional, cell-based
Please go through the items and note down their pEC50.
Numbers only, as −log10 of the molar value.

Assay Cannabinoid receptor 2 (Homo sapiens), sample CCCCCn1nc(C(C)(C)C)cc1C(=O)NC(C)(C)CO , pEC50 read: 6.50

Assay Cannabinoid receptor 2 (Homo sapiens), sample CC(C)(CO)NC(=O)c1cc(C(C)(C)C)n(-c2ccccc2)n1 , pEC50 read: 4.00

Assay Cannabinoid receptor 2 (Homo sapiens), sample CCCCCn1nc(C(C)(C)C)cc1C(=O)Nc1ccc(Cl)cc1 , pEC50 read: 4.00

Parameter requested: pEC50. Apply to each item below.
1. CCCCn1nc(C(=O)NC(C)(C)CO)cc1C(C)(C)C
2. CCCCCn1nc(C(=O)NC(C)(C)CO)c(Cl)c1C(C)(C)C
3. CC(C)(CO)NC(=O)c1cc(C(C)(C)C)n(-c2ccc(F)cn2)n1
4. CC(C)(CO)NC(=O)c1cc(C(C)(C)C)n(-c2ccc(C(F)(F)F)cn2)n1
5. CCCCCn1nc(C(=O)NC(C)(C)C)cc1C(C)(C)C
6. CC(C)(CO)NC(=O)c1cc(C(C)(C)C)n(-c2ccc(F)cc2F)n1

8.00
8.47
6.87
7.82
7.92
5.76
